The entries below come with measured normalized growth values attached.
# EXPERIMENTAL_PROTOCOL: chemical genetic growth profiling, strain panel (AID 1159580);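 note: tested at 20 µM; growth read once vehicle control cultures reached saturation at 30 °C; 1 = growth at the plate median or of vehicle wells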
# SETTINGS: S. cerevisiae deletion strains, growth OD, locus YER155C, strain BEM2, stronger effect = lower value
Among all 5,500 compounds or so, about 2,000 (36%) were called active. Not shown: some 18% with an inconclusive outcome. This is one part of the list.
Form field (numeric): enter value without unit.

Worked cases, normalized growth given:
1) CCC1(c2ccccc2)C(=O)NCNC1=O = 0.998
2) CCc1ccc(CCOc2ccc(CC3SC(=O)NC3=O)cc2)nc1 (centres undefined) = 0.995
3) COc1ccc(-c2coc3c(O)c(OC)ccc3c2=O)cc1 = 0.942

Now look at this one.
Task: Can you look up the measured normalized growth of C=CC(C)(C)c1c2c(c(O)c3c(=O)c4ccc(O)c(O)c4oc13)C=CC(C)(C)O2 for me?
Output: 0.817

###

# EXPERIMENTAL_PROTOCOL: chemical genetic growth profiling, strain panel (AID 1159580);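 note: tested at 20 µM; growth read once vehicle control cultures reached saturation at 30 °C; 1 = growth at the plate median or of vehicle wells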
# SETTINGS: S. cerevisiae deletion strains, growth OD, locus YAL026C, strain drs2
The whole screen tested about 5,500 compounds, of which about 2,000 (36%) were called active. Another 18% or so got no clear call; they are omitted. No stated cut-off is given here; in the data, active means normalized growth mostly below about 0.91 (no sharp cut-off); inconclusive means no clear call, values can overlap the other calls; inactive means mostly above about 0.92. Some of the results follow.
Your answer must be one of the following: Yes for active, No for inactive

1) COC(=O)C1=COC(OC2OC(CO)C(O)C(O)C2O)C2C(C)CC(=O)C12O (centres undefined) = No
2) CNC1(C)C2CCC(C2)C1(C)C (centres undefined) = No
3) CCCCOc1ccc(C(=O)CCN2CCCCC2)cc1 = Yes

Task: Each compound tested received a call. Report the one for C[N+](C)(C)CC(=O)[O-] .
Output: No

###

# EXPERIMENTAL_PROTOCOL: chemical genetic growth profiling, strain panel (AID 1159580);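 note: tested at 20 µM; growth read once vehicle control cultures reached saturation at 30 °C; 1 = growth at the plate median or of vehicle wells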
# SETTINGS: S. cerevisiae deletion strains, growth OD, locus YER167W, strain BCK2, stronger effect = lower value
In all, about 5,500 compounds went through this assay and about 2,000 (36%) were called active. About 18% were inconclusive and are not listed. The list shows a part of the results.
PROPERTY_LABEL: normalized growth
Form field (numeric): enter value without unit.

1. C/C=C(/C(=C/C)c1ccc(O)cc1)c1ccc(O)cc1 = 0.904
2. CNC1(C)C2CCC(C2)C1(C)C (stereo not drawn) = 1
3. O=C1C[C@@H](c2ccc(O)cc2)Oc2cc(O)cc(O)c21 = 1.01
4. CC1(C)C2CC[C@]3(C)C(C(=O)C=C4[C@@H]5C[C@@](C)(C(=O)O)CC[C@]5(C)CC[C@]43C)[C@@]2(C)CC[C@@H]1OC(=O)CCC(=O)O (stereo partly drawn) = 0.99
5. C=C1CC[C@H](O)C/C1=C/C=C1\CCC[C@]2(C)C([C@H](C)/C=C/[C@H](C)C(C)C)CC[C@@H]12 (stereo partly drawn) = 0.999
6. C=CC1=C(C(=O)O)N2C(=O)[C@@H](NC(=O)/C(=N/O)c3csc(N)n3)[C@H]2SC1 = 1
7. c1ccc(CC2=NCCN2)cc1 = 0.939

Now look at this one.
Task: Can you look up the measured normalized growth of COC1C(O)C(O)C(O)[C@@H](O)C1O (stereo partly drawn) for me?
Output: 1.01
